- assay-target: human CRBP2 (Homo sapiens, UniProt P50120)
- Construct: inferred from the Ni-NTA purification; made in house; host or cells: Escherichia coli BL21(DE3)
- Sequence (P50120 whole entry): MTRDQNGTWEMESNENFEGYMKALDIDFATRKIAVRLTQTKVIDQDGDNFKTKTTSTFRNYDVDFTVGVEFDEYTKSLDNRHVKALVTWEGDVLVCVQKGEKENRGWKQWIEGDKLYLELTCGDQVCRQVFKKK
- method-description: Chromophore (atROL) replacement fluorescence titration of holo-CRBP2
- Type: binding
- experimental-conditions: holo-CRBP2 titrated with ligand, 25°C, pH 7.4; average of at least three independent titrations, mean ± SD
Overview of reported log10 Kd across a group of compounds:
Response schema: value (number) is log10 of Kd in units of nM.

CCCCC/C=C\C/C=C\CCCCCCCC(=O)OCC(O)CO (stereo not shown) [1-LG, 1-Linoleoyl glycerol] | 1.99

# query: log10 Kd | item CCCCC/C=C\C/C=C\C/C=C\C/C=C\CCCC(=O)SCC(O)CO (stereo not shown) [1-ASG, Arachidonoyl-1-thio-glycerol] | system: human CRBP2 (Homo sapiens, UniProt P50120)
1.95

Now give it for CCCCCCCCCCCCCCCCOCC(O)CO (stereo not shown) [1-O-HG, 1-O-hexadecyl glycerol] too.
2.18

----------
- assay-target: human CRBP2 (Homo sapiens)
- Construct: inferred from the Ni-NTA purification; made in house; host or cells: Escherichia coli BL21(DE3)
- method-description: Chromophore (atROL) replacement fluorescence titration of holo-CRBP2
- Type: binding
- experimental-conditions: ratio of Kd values versus 2-AG
Overview of reported fold decrease in affinity (increase in Kd) as compared with 2-AG across a group of compounds:

Sample records with fold decrease in affinity (increase in Kd) as compared with 2-AG:
CCCCCCCCCC(=O)OCC(O)CO (stereo not drawn) | 29 fold
CCCCCCCCCCCCCCCCCCCC(=O)OCC(O)CO (stereo not drawn) | ~5 fold
CCCCC/C=C\C/C=C\C/C=C\C/C=C\CCCC(=O)NCCO [AEA, Arachidonoyl ethanolamide] | ~25 fold

For the compound shown here, CCCCCCCCCCCCCCCCCC(=O)OC(CO)CO , give the reported fold decrease in affinity (increase in Kd) as compared with 2-AG.
2 fold

----------
- assay-target: human CRBP2 (Homo sapiens)
- Construct: inferred from the Ni-NTA purification; made in house; host or cells: Escherichia coli BL21(DE3)
- method-description: Chromophore (atROL) replacement fluorescence titration of holo-CRBP2
- Assay type: binding
- experimental-conditions: holo-CRBP2 titrated with ligand, 25°C, pH 7.4; average of at least three independent titrations, mean ± SD
Param label: returns Criterion met when Kd < 200 nM, returns Criterion not met otherwise, including exact equality.

CCCCCCCCCCCCCCCCCC(=O)OC(CO)CO | Criterion met
CCCCCCCCCCCCCCCC(=O)OC(CO)CO | Criterion met
CCCCC/C=C\C/C=C\C/C=C\C/C=C\CCCCOC(CO)CO | Criterion met
CCCCCCCCCCCC(=O)OC(CO)CO | Criterion met
CCCCCCCCCCCCCCCCCCCC(=O)OCC(O)CO (stereo not shown) | Criterion met
CCCCCCCCCC(=O)OCC(O)CO (stereo not shown) | Criterion not met

Next:
Input CCCCC/C=C\C/C=C\C/C=C\C/C=C\CCCCCC(=O)O ; condition: Kd strictly below 200 nM. Does it hold?
Criterion not met
